# protocol.text: growth inhibition, single agents and combos, HTB85, cell-based, BGB or cisplatin IC20 combos, synergistic combos for chromothripsis tumors (AID 1671453);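 note: cells exposed for 96 hours before readout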
# condition.summary: HTB85 osteosarcoma cells, drug combinations, measured here: with BGB IC20, at 5 µM, stronger effect = higher value
inhibition vs 20%: at or above is t, below is f.

**Query** Please check the record "O=C(/C=C/c1cccc(S(=O)(=O)Nc2ccccc2)c1)NO" and state if its inhibition is at or above 20%.
**Result** t

**Query** Is reported inhibition greater than or equal to 20% here: "CC(C)OC(=O)[C@H](C)N[P@](=O)(OC[C@H]1O[C@@H](n2ccc(=O)[nH]c2=O)[C@](C)(F)[C@@H]1O)Oc1ccccc1"
**Result** f

**Query** Assess whether reported inhibition for "c1cc(Nc2cc(C3CC3)[nH]n2)nc(Nc2ccc3nc[nH]c3c2)n1" sits at 20% or higher.
**Result** t

**Query** Kindly determine if inhibition recorded for "COc1cc2ncnc(-n3nc(-c4ccccn4)nc3N)c2cc1OC" is above or exactly 20%.
**Result** f

**Query** API: above_or_equal(metric=inhibition, cutoff=20%) for item "CC(=O)Nc1ccc(C(=O)Nc2ccccc2N)cc1"
**Result** t

**Query** Determine whether this molecule has inhibition no lower than 20%: "COc1cc(C=O)c([N+](=O)[O-])cc1OC"
**Result** f

**Query** Does the reported inhibition for "COc1ccc(-n2c(SCCCN3C(=O)c4cccc5cccc(c45)C3=O)nnc2-c2ccncc2)cc1" fall at or above the 20% mark?
**Result** f

**Query** Is it the case that "Nc1nc2n[nH]nc2c(=O)[nH]1" has inhibition reaching or exceeding 20%?
**Result** f

**Query** API: above_or_equal(metric=inhibition, cutoff=20%) for item "C[C@]12CCCN1CC1=NNC(=O)c3cc(F)cc4[nH]c2c1c34"
**Result** f

**Query** I'd appreciate it if you could say whether "Nc1ccc(-c2ccc3ncc4ccc(=O)n(-c5cccc(C(F)(F)F)c5)c4c3c2)cn1" has inhibition at least equal to 20%.
**Result** t

**Query** Quick check, inhibition >= 20%? NC1CCC(N[C@@H]2C[C@H]2c2ccccc2)CC1 (stereo partly specified)
**Result** f
